target: Ubiquitin carboxyl-terminal hydrolase 17-like protein 5 (Homo sapiens) (UniProt A8MUK1); experiment: inhibitors of human USP17 deubiquitinase (AID 1645855); settings: purified USP17, Ub-rhodamine cleavage fluorescence, 3 h; at 50 µM
Sequence (A8MUK1 whole entry, looked up): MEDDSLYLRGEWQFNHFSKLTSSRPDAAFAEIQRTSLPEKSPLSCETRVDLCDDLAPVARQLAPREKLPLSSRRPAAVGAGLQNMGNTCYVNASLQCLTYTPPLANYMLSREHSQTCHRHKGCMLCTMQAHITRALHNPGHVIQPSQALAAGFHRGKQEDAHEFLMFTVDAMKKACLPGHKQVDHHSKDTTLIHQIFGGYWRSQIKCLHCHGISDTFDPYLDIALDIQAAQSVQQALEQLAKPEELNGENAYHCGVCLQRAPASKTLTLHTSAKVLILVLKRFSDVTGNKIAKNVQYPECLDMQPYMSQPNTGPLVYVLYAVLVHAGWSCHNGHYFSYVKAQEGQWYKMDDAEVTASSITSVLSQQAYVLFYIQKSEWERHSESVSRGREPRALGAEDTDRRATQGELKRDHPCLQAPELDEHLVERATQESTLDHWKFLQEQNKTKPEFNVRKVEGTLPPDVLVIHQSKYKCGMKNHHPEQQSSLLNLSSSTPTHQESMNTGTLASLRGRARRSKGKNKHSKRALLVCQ
Out of some 47,000 compounds screened, about 3,100 (6.6%) were called active. No stated cut-off is given here; in the data, active means inhibition above about 30%; inactive means the rest. The entries come from a sample that favours actives as a whole.
Labels: active, inactive

CCOc1ccc2c(c1)c(=O)c(C(=O)c1ccccc1)cn2CC(=O)Nc1ccc(OC)cc1 | inactive
Cn1cc(-c2nc(C(=O)Nc3ccc(F)cc3)cs2)c2cccnc21 | active
COc1ccc(CCNC(=O)c2ccc3ccccc3c2)cc1OC | inactive
COc1cccc(NC(=O)N2CC[C@H]3N(C)CC[C@@]3(C(=O)N3CCCC3)CC2)c1 | inactive
COc1cnc(CSc2nccc(C)n2)cc1OCC(=O)Nc1ccc(C)cc1C | inactive
CC(=O)N1CCCCCC1C1CCN(c2ncccc2C#N)CC1 (configuration not stated) | inactive
COc1ccc(-c2nc3c(c(=O)c4ccccc4n3C)c(=O)n2CCc2ccc(OC)c(OC)c2)cc1 | inactive
CCOc1ccc2[nH]c3c(=O)n(Cc4cccnc4)cnc3c2c1 | inactive
COc1ccc(NC(=O)CSc2ncccc2C(=O)N2CCC(Cc3ccccc3)CC2)cc1OC | inactive
O=C(O)c1c2c(nc3ccccc13)/C(=C/c1ccc(F)cc1)CCC2 | inactive
COc1ccc(CN2CCN(C(=O)c3ccc4c(c3)OCO4)CC2)cn1 | inactive
COC(=O)c1ccc(CN2CCN(c3cnn4cnnc4c3)CC2)cc1 | inactive
CC(C)c1noc(-c2ccc(OCC(=O)Nc3ccccc3Br)cc2)n1 | inactive
CCc1cc(=O)n(CC(=O)NC2CCCC2)c(N2CCOCC2)n1 | inactive
COc1cccc(N2CCN(C(=O)Nc3ccc4c(c3)NC(=O)CO4)CC2)c1 | active
O=C(Cc1ccc(Cl)cc1)N1CCC2(CN(Cc3ccc(O)cc3)C2)C1 | inactive
COCCN1C[C@@]23CN(C(=O)NCc4ccccc4)C[C@@H](C[C@@H]2S1(=O)=O)O3 | inactive
CN(Cc1cccnc1)Cc1ccc(N2CCC(NC(=O)c3ccc4c(c3)OCO4)CC2)nc1 | inactive
O=C(Nc1ccc2sc(NC(=O)C3CCCCC3)nc2c1)NC1CCCC1 | inactive
CCN1CCN(S(=O)(=O)c2ccc3c(c2)CC(C)N3C(=O)C2CC2)CC1 (configuration not stated) | inactive
O=C(C1CC1)N1CCc2cc(S(=O)(=O)NCCCN3CCN(Cc4ccccc4)CC3)ccc21 | inactive
Cn1cc(CCNC(=O)c2cc3ccccc3[nH]2)c2cccnc21 | inactive
O=C1NC2(CCN(C(=O)Cc3ccccc3)CC2)Nc2cc(Cl)ccc21 | inactive
COc1c(O)c2c(=O)cc(OC)c3c4c(OC)cc(=O)c5c(O)c(OC)c(CC(C)OC(=O)c6ccccc6)c(c(c1CC(C)OC(=O)Oc1ccc(O)cc1)c23)c54 (configuration not stated) | active
COCCN1C[C@H]2COc3cc(OC)ccc3[C@H]2N(C(=O)c2ccc(F)cc2)CCC1=O | inactive
COc1ccc(-c2cc(C(F)F)n3ncc(C(=O)N(C)Cc4c(C)nn(C)c4C)c3n2)cc1 | inactive
Cc1cc2oc(C(=O)Nc3ccc4c(c3)NC(=O)CO4)c(C)c2cc1Cl | inactive
O=C(NCCC1=CCCCC1)c1ccc(-c2noc(-c3ccccc3)n2)s1 | inactive
CC(C)c1ccc(S(=O)(=O)N[C@H](C)C(=O)NCc2cscn2)cc1 | inactive
Cn1c(=O)c2c(nc(N3CCN(C(=O)c4ccco4)CC3)n2CCSc2nc3ccccc3s2)n(C)c1=O | inactive
CN(C)C(CNC(=O)c1ccccc1Br)Cc1ccccc1 (configuration not stated) | inactive
COCCNC(=O)C(Cc1ccccc1)N1Cc2ccccc2C1=O (configuration not stated) | inactive
NC(=O)CN1C(=O)CO[C@H]2CN(Cc3ccc(F)c(F)c3)C[C@H]21 | inactive
COc1ccc(S(=O)(=O)N2CC(C(=O)NC3CCCCC3)C3(CCOCC3)C2)cc1 (configuration not stated) | inactive
O=c1c2[nH]c3ccc(Cl)cc3c2ncn1Cc1cccnc1 | inactive
CC(=O)Nc1ccc2c(c1)nc(CCN1CCCC1)n2C | inactive
O=S(=O)(c1ccc(S(=O)(=O)N2CCN3CCCC3C2)cc1)N1CCOCC1 (configuration not stated) | inactive
CCCOc1ccc(-c2csc3ncn(CCc4ccccc4)c(=O)c23)cc1 | inactive
O=CN1c2ccccc2NC(=O)CC1c1ccccc1 (configuration not stated) | inactive
COCCCNC(=O)[C@H](Cc1ccccc1)NC(=O)N1CCn2c1nc1ccccc12 | inactive
Cc1ccc2sc(NC(=O)NC(=O)c3c(Cl)cccc3Cl)nc2c1 | active
CC1=C(C(=O)Nc2ccccc2)C(c2cccnc2)n2nc(CCCO)nc2N1 (configuration not stated) | inactive
